- MEASUREMENT TARGET: T1, GST-TIAR RRM2 (UniProt Q01085 Q01085:97-175)
- T1 sequence: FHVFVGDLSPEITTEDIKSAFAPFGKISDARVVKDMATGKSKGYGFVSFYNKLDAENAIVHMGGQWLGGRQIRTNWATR
- ASSAY REMARKS: EMSA; SD 5 nM, n=1.2
- COND: tags: GST fusion; label: 32P; stem-loop
MEASURE NAME: pKd
The scale used: pKd is minus the common logarithm of the concentration in molar units.

Supply pKd value. Item: WNV 3'(-)SL RNA with 5' CCC (ssRNA) RNA: CCCCAGCUCGCACCGUGUUAAUUGUUGUUAAUCCUCACAAACACUACUAAGUUUGUCAGCUCACACAGGCGAACUACU
7.82
